Provenance of the data: patent US11357847B2

System: various anti-gD2 antibodies
TEST DESCRIPTION: Reactivity of gD variants with anti-gD2 antibodies (competitive ELISA)
Format: binding, human
CONDITION: immobilized gD variant
MEASURED QUANTITY: Reactivity with anti-gD2 antibody 5

1. gD1-315v3: gD1-315 with glycochain introduced at P50 (SC-F) (protein) KYALADPSLKMADPNRFRGKNLPVLDQLTDPPGVKRVYHIQPSLEDPFQNASIPITVYYAVLERACRSVLLHAPSEAPQIVRGASDEARKHTYNLTIAWYRMGDNCAIPITVMEYTECPYNKSLGVCPIRTQPRWSYYDSFSAVSEDNLGFLMHAPAFETAGTYLRLVKINDWTEITQFILEHRARASCKYALPLRIPPAACLTSKAYQQGVTVDSIGMLPRFIPENQRTVALYSLKIAGWHGPKPPYTSTLLPPELSDTTNATQPELVPEDPEDSALLEDPAGTVSSQIPPNWHIPSIQDVAPHHAPAAPSNPGHHHHHH : − ((−): less than 30%)
2. gD1-275v3: gD1-275 with glycochain at P50 (SC-F) (protein) KYALADPSLKMADPNRFRGKNLPVLDQLTDPPGVKRVYHIQPSLEDPFQNASIPITVYYAVLERACRSVLLHAPSEAPQIVRGASDEARKHTYNLTIAWYRMGDNCAIPITVMEYTECPYNKSLGVCPIRTQPRWSYYDSFSAVSEDNLGFLMHAPAFETAGTYLRLVKINDWTEITQFILEHRARASCKYALPLRIPPAACLTSKAYQQGVTVDSIGMLPRFIPENQRTVALYSLKIAGWHGPKPPYTSTLLPPELSDTTNATQPELVPEDPEDHHHHHH : − ((−): less than 30%)
